Below, each entry is listed with its recorded inhibition.
molecular target: Integrin beta-2 (Homo sapiens) + Integrin alpha-M (Homo sapiens) (UniProt P05107+P11215); assay: inhibitors of CD11b/CD18 adhesion to fibrinogen, primary screen, K562 cells, luminescence (AID 1497); conditions: ATPlite luminescence, at 10 µM, stronger effect = higher value, Mn2+ added to activate the integrin
Sequence (P05107 whole entry, looked up, other chains not shown): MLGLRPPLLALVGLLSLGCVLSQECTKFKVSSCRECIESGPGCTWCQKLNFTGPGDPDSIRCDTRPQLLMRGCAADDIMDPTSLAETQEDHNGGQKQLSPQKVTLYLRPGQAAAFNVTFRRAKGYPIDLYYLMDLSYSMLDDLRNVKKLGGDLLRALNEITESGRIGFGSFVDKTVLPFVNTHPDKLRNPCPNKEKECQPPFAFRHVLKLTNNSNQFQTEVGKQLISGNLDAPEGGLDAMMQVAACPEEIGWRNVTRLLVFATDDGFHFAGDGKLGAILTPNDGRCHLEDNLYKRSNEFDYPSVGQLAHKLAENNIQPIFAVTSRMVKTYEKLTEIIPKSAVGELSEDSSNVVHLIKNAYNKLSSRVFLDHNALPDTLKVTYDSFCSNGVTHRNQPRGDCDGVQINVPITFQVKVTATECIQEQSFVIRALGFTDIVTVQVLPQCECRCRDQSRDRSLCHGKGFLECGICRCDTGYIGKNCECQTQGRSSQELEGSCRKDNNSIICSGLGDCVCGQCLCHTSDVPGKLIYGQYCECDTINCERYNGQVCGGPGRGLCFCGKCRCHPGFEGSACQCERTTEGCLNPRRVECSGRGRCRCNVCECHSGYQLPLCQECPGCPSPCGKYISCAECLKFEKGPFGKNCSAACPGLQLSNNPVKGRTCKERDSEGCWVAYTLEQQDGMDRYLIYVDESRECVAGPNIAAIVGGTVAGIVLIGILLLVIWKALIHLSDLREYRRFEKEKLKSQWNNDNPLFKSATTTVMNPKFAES
Screen size: about 93,000 compounds; about 500 (0.54%) were called active. The sample holds actives, similar compounds and a random draw of the others, so the mix is not that of the screen.
outcome_measure: inhibition (%)

molecule="CC(C)(C)n1nnnc1C(c1ccc(F)cc1)N1CCN(Cc2ccc3c(c2)OCO3)CC1 (stereo not given)" units=% recorded_measurement=-11.6
molecule=Cc1cc(Br)ccc1SCC(=O)OCC(=O)NCc1ccc2c(c1)OCO2 units=% recorded_measurement=10.7
molecule=Fc1ccc2[nH]c3c(N4CCSCC4)ncnc3c2c1 units=% recorded_measurement=81.7
molecule=Cc1ccc(-n2ncc3c(N4CCN(c5ccc(F)cc5)CC4)ncnc32)c(C)c1 units=% recorded_measurement=39.7
molecule="CCCCc1ccc(NC(=S)N2CCCC(CO)C2)cc1 (stereo not given)" units=% recorded_measurement=-5.8
molecule="CCN1CCCC1CNc1ncnc2c1[nH]c1ccc(F)cc12 (stereo not given)" units=% recorded_measurement=-18.1
molecule=N#CCOc1ccc(C2=NO[C@@H]3[C@@H]4C[C@@H]([C@H]5C(=O)N(c6ccc7c(c6)OCO7)C(=O)[C@@H]45)[C@H]23)cc1 units=% recorded_measurement=-2
molecule=CCOC(=O)/C(C#N)=C/c1ccc(N2CCN(Cc3ccccc3)CC2)cc1 units=% recorded_measurement=82.1
molecule=COc1ccc(C(=O)Nc2ccccc2C(=O)N/N=C/c2ccc(O)c(OC)c2)cc1 units=% recorded_measurement=106
molecule=COc1ccc(CCNC(=O)CSc2nc(-c3ccc(OC)c(OC)c3)ccc2C#N)cc1 units=% recorded_measurement=18.5
